Below: a set of entries, each annotated with reported cell viability.
Test system: NOMO1
Assay: cell viability relative to DMSO control; higher = less cytotoxic
Conditions: HPLM + 10% dialyzed FBS; 48 h; 0.000781 µM
Quick reminder: number only, in %, skip the unit.

Please review the following examples before continuing.
CC[C@@H](C)[C@H](NC(=O)[C@H](CC1CCCCC1)NC(=O)c1ccno1)C(=O)N1CCC2(CCc3ccccc32)CC1: 85.9
COC1=CC2=C(C=C1CC3=C(F)C(=CC=C3)Cl)C(=O)\C(=C/N2[C@H](CO)C(C)C)C(O)=O: 122
CN1CCC(=C2c3ccccc3CCc3sccc32)CC1: 88.8

Please examine the following record next.
Exam item: Suppose we examine the molecule `O=C(c1ccc(C(=O)N2CCC(N3CCCC3)CC2)c(Nc2ccccc2)c1)N1CCC(N2CCCC2)CC1` ; what cell viability value has been reported?
Marked response: 98.6
